Reference for the values: the supplement of paper PMC10567573

B1: FCHSD1 (parent)
chain: LEAAEVILEHAHRGEQTTSQVSWE

- Variants of: B1
- test method notes: protein stability index of a GFP-peptide fusion (GPS, HEK-293T) (PSI 1-6); higher = more stable;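 further: lentivirally expressed fusions sorted by FACS into six bins by GFP to DsRed ratio, PSI derived from sequencing read proportions per bin multiplied by bin number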
- condition notes: c terminus: a fixed tail appended
observable: protein stability index

* E15N | 4.7
* T18D | 4.74
* Q16F | 3.53
* R13T | 4.58
* E9Q | 3.45
* E24R | 3.47
* L8W | 4.31
* E24A | 3.2
* Q16L | 2.92
* V6D | 5.52
* H12F | 2.87
* T18Y | 3.21
* A11F | 3.27
* S22Q | 4.98
* I7C | 4.28
* E5I | 2.18
